Measured values drawn from PubChem BioAssay (NCI) for this set.

# protocol: NCI Yeast Anticancer Drug Screen. Data for the mec2-1 strain (AID 157)
# condition.notes: S. cerevisiae mec2-1 strain, at 50.0 µM, stronger effect = higher value
This is part of a sample that, as a whole, favours compounds with a hit. Of some 79,000 tested, about 15% had one in any assay.
Listed next: entries and their corresponding growth inhibition.
Write down the numeric answer in % and omit the unit.

Would you please look over these solved cases?
O=C(O)CN(CCN1CC(=O)OC(=O)C1)CCN1CC(=O)OC(=O)C1 ... 88.5
O=C(/C=C(\OB(F)F)c1ccccc1)c1ccccc1 ... 98.9
O=C(N/C(=C\c1cccc([N+](=O)[O-])c1)c1nc2ccccc2s1)c1ccccc1 ... 98.6
CC(C)=CCC/C(C)=C/CC/C(C)=C/CSc1ccccc1C(=O)O ... 75.8
CC(=O)/C(=C\c1ccc(Cl)cc1Cl)C(=O)CCN(C)C ... 99.3

Looking up `N#CC(C#N)=C/C=C/c1c(Cl)cccc1Cl` , I found its growth inhibition recorded as 46.9

* * *

# protocol: NCI Yeast Anticancer Drug Screen. Data for the cln2 rad14 strain (AID 165);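 note: 0% = growth equal to vehicle treated cultures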
# condition.notes: S. cerevisiae cln2 rad14 strain, at 50.0 µM
About 79,000 compounds went through this panel and 15% of them were active in at least one assay; those are over-represented in the sample as a whole. Activity calls are given as the source filed them. Cut-off read from the data, not from the text of the source: active = growth inhibition above about 70%; inactive = the rest.
Respond with a class label; see yes (1) = active, no (0) = inactive

Solved cases below.
N#Cc1ccc(Oc2nc3ccccc3nc2-c2ccccc2)cc1 ... no (0)
CCCCc1c2c(nc3c1CC/C(=C\c1ccc([N+](=O)[O-])cc1)C3=O)CCCC2 ... yes (1)
O=C(O)c1ccccc1C(=O)c1ccc2c(c1)Cc1ccccc1-2 ... yes (1)
Cc1c2ccccc2c(C)c2c1cc(F)c1ccccc12 ... yes (1)
CN(C)c1nc(N(C)C)nc([N+](C)(C)C)n1 ... yes (1)

# ---- query compound ----
Task: Dear colleague, could you share the recorded outcome for `CC(C)(C)CC(C)(C)c1ccc(Oc2ccc([N+](=O)[O-])cc2S(=O)(=O)O)cc1` when you have a moment?
Output: no (0)

* * *

# protocol: NCI Yeast Anticancer Drug Screen. Data for the rad50 strain (AID 155);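 note: 0% = growth of vehicle-only cultures of the same strain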
# condition.notes: S. cerevisiae rad50 strain growth inhibition; at 50.0 µM (retest, dose inferred, filed as 5.0)
This is part of a sample that, as a whole, favours compounds with a hit. Of some 79,000 tested, about 15% had one in any assay. Active and inactive are the calls of the source. Cut-off read from the data, not from the text of the source: active = growth inhibition above about 70%; inactive = the rest.
Respond with a class label; see active, inactive

Solved cases below.
CCOC(=O)c1ccc2c(c1)Cc1cc([N+](=O)[O-])ccc1-2 ... inactive
O=C1C(Cl)=C(Cl)C(=C2C(Cl)=C(Cl)C(=O)C(Cl)=C2Cl)C(Cl)=C1Cl ... active
CN1CCN(CCSC2Cc3cc(Cl)ccc3Sc3ccccc32)CC1 (stereo unspecified) ... inactive
CCCCCCCCCCCCCC(=O)CBr ... active
CCCCCCCCCCCC(=O)OC/C=C/COC(=O)c1ccccc1 ... inactive
Cc1ccc2[nH]c3c(c2c1)CCC/C3=N/N=C(N)N ... active
CCOC(=O)c1[nH]n(-c2ccccc2)c(=O)c1/C=N/C(=S)N=Nc1c(O)[nH]c2ccccc12 ... inactive
C=CCN1CCC(OC(=O)C(O)(/C=C\CC)C2CCCC2)CC1 (stereo unspecified) ... inactive

Task: Dear colleague, could you share the recorded outcome for `Cc1ccc(Cc2n[nH]c(=O)[nH]2)cc1` when you have a moment?
Output: inactive

Task: Dear colleague, could you share the recorded outcome for `Cn1c(-c2ccc(/C=N/NC(=S)N/N=C/c3ccc(-c4c[n+]5ccsc5n4C)cc3)cc2)c[n+]2ccsc12` when you have a moment?
Output: active

Task: Dear colleague, could you share the recorded outcome for `O=C(NC1CCN(Cc2ccccc2)CC1)c1ccccc1I` when you have a moment?
Output: active

* * *

# protocol: NCI Yeast Anticancer Drug Screen. Data for the mlh1 rad18 strain (AID 175)
# condition.notes: S. cerevisiae mlh1 rad18 strain growth inhibition; at 50.0 µM
This is part of a sample that, as a whole, favours compounds with a hit. Of some 79,000 tested, about 15% had one in any assay. Activity calls are given as the source filed them. Rule as the data show it: active = growth inhibition above about 70%; inactive = the rest.
Respond with a class label; see yes (1) (active), no (0) (inactive)

OC(CC(CC(O)(C(F)(F)F)C(F)(F)F)=NN=C(CC(O)(C(F)(F)F)C(F)(F)F)CC(O)(C(F)(F)F)C(F)(F)F)(C(F)(F)F)C(F)(F)F ... no (0)
O=C1OC(c2cccc(Cl)c2)Sc2ccccc21 (stereo unspecified) ... no (0)
CCOC(=O)C(=Cn1c(=S)[nH]c2ccc([N+](=O)[O-])cc21)C(=O)OCC ... no (0)
COc1ccc([N+](=O)[O-])cc1NC(=O)Nc1ccc(C(=O)OCC(C)C)cc1 ... yes (1)
N=c1c2ccccc2cc2c3ccccc3ccn12 ... yes (1)
O=C(O)/C=C/C(=O)Nc1cccc2c1C(=O)c1ccccc1-2 ... yes (1)
O=c1ccc([N+](=O)[O-])c[nH]1.[Ag] ... yes (1)
CC(C)NC(=O)OCCS(=O)c1c(Cl)c(Cl)nn1C (stereo unspecified) ... yes (1)

Task: Dear colleague, could you share the recorded outcome for O=C1OCC2=C1C(c1ccc(Cl)cc1)c1cc3c(cc1O2)OCO3 (stereo unspecified) when you have a moment?
Output: no (0)

Task: Dear colleague, could you share the recorded outcome for `C[C@]12CC[C@H](O)C[C@@H]1CC[C@@H]1[C@@H]2CC[C@]2(C)[C@@H](c3cc(C(F)(F)F)n[nH]3)CC[C@@H]12` when you have a moment?
Output: yes (1)

Task: Dear colleague, could you share the recorded outcome for O=C(/N=C1\N=Nc2nc(C(C(=O)c3cccs3)c3nc4n(c3O)/C(=N/C(=O)Nc3ccc(Cl)cc3)N=N4)c(O)n21)Nc1ccc(Cl)cc1 (stereo unspecified) when you have a moment?
Output: no (0)

Task: Dear colleague, could you share the recorded outcome for CCCCC1(C(O)CC)Sc2ccccc2N1C (stereo unspecified) when you have a moment?
Output: no (0)

Task: Dear colleague, could you share the recorded outcome for COC(=O)C1(C)CCCC2(C)C3CC(=O)C(C(C)C)=CC3(O)CCC12 (stereo unspecified) when you have a moment?
Output: no (0)

* * *

# protocol: NCI Yeast Anticancer Drug Screen. Data for the mlh1 rad18 strain (AID 175)
# condition.notes: S. cerevisiae mlh1 rad18 strain growth inhibition; at 50.0 µM (retest, dose inferred, filed as 5.0); stronger effect = higher value
This is part of a sample that, as a whole, favours compounds with a hit. Of some 79,000 tested, about 15% had one in any assay.
property.measured: growth inhibition (%)
Write down the numeric answer in % and omit the unit.

Would you please look over these solved cases?
CC12CC(O)C3C(CCC4CCCCC43C)C1CC/C2=N/O (stereo unspecified) ... 5
CCOc1ccccc1C(=O)OCc1ccccc1 ... 21

Looking up `O=C1c2cc(Br)ccc2NC1(c1c[nH]c2ccccc12)c1c[nH]c2ccccc12` , I found its growth inhibition recorded as 95

Looking up CC(=O)Oc1ccc(C)c(C(C)C(Cl)(Cl)Cl)c1 (stereo unspecified) , I found its growth inhibition recorded as 27

Looking up O=C1OC(CC(=O)c2ccccc2Cl)C(Cl)=C1Cl (stereo unspecified) , I found its growth inhibition recorded as 62

Looking up `Cc1nc2ccc3c(ccc4nc(C)c(N=Nc5ccc(C(=N)N)cc5)c(O)c43)c2c(O)c1N=Nc1ccc(C(=N)N)cc1` , I found its growth inhibition recorded as 77

* * *

# protocol: NCI Yeast Anticancer Drug Screen. Data for the mec2-1 strain (AID 157)
# condition.notes: S. cerevisiae mec2-1 strain, at 50.0 µM (retest, dose inferred, filed as 5.0), stronger effect = higher value
This is part of a sample that, as a whole, favours compounds with a hit. Of some 79,000 tested, about 15% had one in any assay.
Listed next: entries and their corresponding growth inhibition.
Write down the numeric answer in % and omit the unit.

c1ccc(-c2cc(Nc3ccc4c(c3)OCO4)c3cc(C4CCCCC4)ccc3n2)cc1 ... 96
CC/C(=C\c1cccc(OC)c1)c1ccncc1 ... 92
CC(N)C1C(C)CC2C3CC=C4CC(O)CCC4(C)C3CCC21C (stereo unspecified) ... 74
COc1ccc(CN2CCCN(Cc3ccc(OC)cc3OC)C2c2cc(Br)ccc2O)c(OC)c1 ... 100
CC1/C(=N\O)CC(c2ccccc2)N(C)C1c1ccccc1 (stereo unspecified) ... 98
CCOC(=O)C(NC(C)=O)[CH](c1ccccc1)[Sn]([Cl])([c]1ccccc1)[c]1ccccc1 (stereo unspecified) ... -12
CCc1cccc(C(C)(C)C)c1NC(=S)N/C=C(\C#N)C(=O)c1ccc2ccccc2c1 ... 25
CN1c2ccccc2C(c2ccccc2)c2ccc(Nc3ccccc3)cc21 (stereo unspecified) ... 100
c1ccc2sc(SSN3CCOCC3)nc2c1 ... 98
Cc1ccc2c(c1)[n+]([O-])c(N)n[n+]2[O-] ... 35

Looking up `O=C1OC(=O)c2cc([N+](=O)[O-])cc3cccc1c23` , I found its growth inhibition recorded as 99
